Provenance of the data: patent CN115124615A

Documented pKd across a set of binders
target_or_test_system: T1, SARS-CoV2病毒表面SPIKE蛋白的RBD结构域 (SARS-CoV-2, UniProt P0DTC2 319-541)
T1 construct: domain: RBD结构域
assay_remarks: SPR (Biacore)
Scale: pKd equals -log10([C]), with [C] in mol/L.

Enquiry: Which measured pKd value corresponds to 纳米抗体N3 (VHH, also called R3) VHH: QVQLVESGGGLVQAGGSLRLSCRASGSVFTMGWHRQAPGNGREFVASITRDGNANYKGSVKDRFTISRDNGKNTLYLQMNSLKPEDTAVYYCIDYNTSTWGQGTQVTVSS ?
Return: 8.85

Enquiry: How about 纳米抗体N10 (VHH, also called R10) VHH: QVQLVESGGGLVEAGGSLRLSCAASGIIFSINNMAWYRQAPGKPREWVAAVSSSGNTNYAASVKGRFTISRDNAKNTLYLQMSSLKPEDTAVYYCYAVAPEGGDSWGQGTQVTVSS ?
Return: 9.23

Enquiry: How about 纳米抗体N1 (VHH, also called R1) VHH: QVQLVESGGGLVQPGGSLRLSCTASGSGFSNNNMAWYRQAPGKAREWVAAVSSSGNTNYAASAKGRFTISRDNAKNTVYLQMSSLKPEDTAVYYCYAVAPEGGDSWGQGTQVTVSS ?
Return: 9.25

Enquiry: How about 纳米抗体N5 (VHH, also called R5) VHH: QVQLVESGGGPVQAGGSLRLSCAAAGSALSIYRMGWYRQAPGKQRELVAFITTGGSTDHIDSVKGRFTISRDNAKNTVYLQMNSLKPEDTAVYYCNSDPPWVLGADWGQGTQVTVSS ?
Return: 8.28

Enquiry: How about 纳米抗体N22 (VHH, also called R22) VHH: QVQLVESGGGLVQAGGSLRLSCRASGTVFNMGWHRQAPGQQREFVASISHDGRTNYAGSVKGRFTISRDNTKNTLYLQMNSLKPEDTAVYYCIDYHTSLWGQGTQVTVSS ?
Return: 9.72
